EXPERIMENT: MHET released, HPLC; higher = more MHET released; extreme values may be limits of the assay
EXPERIMENTAL_PARAMETERS: PET substrate: aFilm; 70 °C; pH 4.5; 24 h
Below, each entry is listed with its recorded MHET released.
Express it in mM; write the number only.

A selection of reference data follows.
{"SEQ_TEXT": "SNPYQRGPNPTRSALTADGPFSVATYTVSRLSVSGFGGGVIYYPTGTSLTFGGIAMSPGYTADASSLAWLGRRLASHGFVVLVINTNSRFDGPDSRASQLSAALNYLRTSSPSAVRARLDANRLAVAGHSMGGGGTLRIAEQNPSLKAAVPLTPWHTDKTFNTSVPVLIVGAEADTVAPVSQHAIPFYQNLPSTTPKVYVELCNASHIAPNSNNAAISVYTISWMKLWVDNDTRYRQFLCNVNDPALCDFRTNNRHCQ [LCC-ICCG]", "OBSERVATION_TYPE": "MHET released", "UNITS_TEXT": "mM", "ENDPOINT_VALUE": 0}
{"SEQ_TEXT": "SNPYQRGPNPTRSALTADGPFSVATYTVSRLSVSGFGGGVIYYPTGTSLTFGGIAMSPGYTADASSLAWLGRRLASHGFVVLVINTNSRFDGPDSRASQLSAALNYLRTSDPSAVRARLDANRLAVAGHSMGGGATLRIAEQNPSLKAAIPLTPWHTQKTFNTSVPVLIVGAEADTVAPVSQHAIPFYQNLPSTTPKVYVELCNASHIAPNSNNAAISVYTISWMKLWVDNDTRYRQFLCNVNDPALCDFRTNNRHCQ [LCC-ICCG DAQI]", "OBSERVATION_TYPE": "MHET released", "UNITS_TEXT": "mM", "ENDPOINT_VALUE": 0}

response.value for SNPYQRGPNPTRSALTADGPFSVATYTVSRLSVSGFGGGVIYYPTGTSLTFGGIAMSPGYTADASSLAWLGRRLASHGFVVLVINTNSRFDGPDSRASQLSAALNYLRTSSPSAVRARLDANRLAVAGHSMGGGGTLRIAEQNPSLKAAVPLTPWHTDKTFNTSVPVLIVGAEADTVAPVSQYAIPFYQNLPSTTPKVYVELCNASHIAPNSDNAAISVYTISWMKLWVDNDTRYRQFLCNVNDPALCDFRTNNRHCQ [LCC-A2] (field: MHET released) = 0
